Molecular target: T1, human DLL3 (delta-like protein 3 isoform 1 precursor) expressed on Ba/F3 cells (human, UniProt Q9NYJ7 27-618)
T1 construct: Full-length cDNA stably transfected into mouse Ba/F3 cells; also called human DLL3 expressing Ba/F3
T1 sequence: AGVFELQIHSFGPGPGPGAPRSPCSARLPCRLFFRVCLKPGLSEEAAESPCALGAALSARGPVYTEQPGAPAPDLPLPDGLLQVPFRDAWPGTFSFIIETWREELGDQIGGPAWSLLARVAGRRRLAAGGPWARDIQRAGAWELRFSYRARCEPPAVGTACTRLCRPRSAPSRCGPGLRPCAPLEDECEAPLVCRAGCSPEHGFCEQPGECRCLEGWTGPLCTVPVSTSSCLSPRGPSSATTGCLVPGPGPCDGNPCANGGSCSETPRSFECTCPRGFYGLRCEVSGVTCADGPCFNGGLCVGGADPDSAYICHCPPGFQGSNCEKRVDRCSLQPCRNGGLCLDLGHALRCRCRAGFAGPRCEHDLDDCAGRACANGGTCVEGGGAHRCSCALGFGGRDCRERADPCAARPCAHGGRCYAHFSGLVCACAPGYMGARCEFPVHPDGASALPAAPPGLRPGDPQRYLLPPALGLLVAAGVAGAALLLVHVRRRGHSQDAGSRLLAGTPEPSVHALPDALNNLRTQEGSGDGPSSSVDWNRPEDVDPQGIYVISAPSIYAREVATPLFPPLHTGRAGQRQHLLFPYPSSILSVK
Test: cell ELISA, B-cell culture supernatants on immobilized hDLL3/BaF_H3 cells
experimental readout: binding result

Query: State the recorded binding result for this entry: DLA0769 (antibody, human IgG1, V domains shown, Rabbit B-cell clone, screened as B-cell culture supernatant) VH: QEQLVESGGGLVQPEGSLTLTCTASGFSFSSSGYMCWVRQAPGKGLEWIACISGGSSGDTDYANWAKGRFSISKTSSTTVTLQMTSLTVADTATYFCARDVYIDSTIFNFNLWGPGTLVTVSS VL: QVLTQTPSPVSAAVGGTVTISCQASQSVYNNNNLAWYQQKPGQPPKLLIYAASSLASGVPSRFKGSGAGTQFTLTISDLECDDAATYYCQGTYYSSGWYSTFGGGTEVVVK
Reply: binds

Query: Any idea what binding result was measured for DLA0379 (antibody, human IgG1, V domains shown, Rabbit B-cell clone, screened as B-cell culture supernatant) VH: QSLEESGGRLVTPGTPLTLTCTASGFSLNTYHMIWVRQAPGKGLEWIGIVDSGGSTYYASWAKGRFTISRTSTTVDLKATSLTTEDTATYFCARGGSWDGFNIWGPGTLVTVSS VL: DVVMTQTPSSVSAAVGGTVTINCQSSQSVYNSDFLAWYQQKPGQPPKLLIYAASTLASGVPSRFKGSGSGTQFTLTISDLECDDAATYYCQGTYEDVGWFNDFGGGTEVVVK ?
Reply: binds
